Please go through the items and note down their growth.
Test system: SK-MEL-28 melanoma
Experiment: NCI-60 one-dose screen, 48 h (100 = growth as untreated, 0 = no growth, -100 = all killed)
Conditions: 10 µM unless noted
Compounds without any hit were thinned out: in the full panel of roughly 83,000, 20% have a hit.
Expressed in %, but write only the number.

Given O=c1n(CC2CO2)c(=O)n(CC2CO2)c(=O)n1CC1CO1 (stereo not drawn) , state its recorded growth. 88.7

Given Brc1ccc(SSc2ccc(Br)cc2)cc1 , state its recorded growth. 97.6

Given C#CCOC(=O)Nc1ccccc1 , state its recorded growth. 103

Given Cl , state its recorded growth. 136

Given CC(C)NC(=O)N/C=C(\C#N)C(N)=O , state its recorded growth. 100

Given Nc1nc(N)c2[nH]cnc2n1 , state its recorded growth. 99.9

Given c1ccc2c(c1)OC1OC2Oc2ccccc21 , state its recorded growth. 103

Given CCc1cc(C)cc(O)c1 , state its recorded growth. 111

Given OCCN1CCCCCCC1 , state its recorded growth. 104

Given COc1cc(C(O)C2C(=O)OCC2C2(c3ccc4c(c3)OCO4)SCCCS2)cc(OC)c1OC (stereo not drawn) , state its recorded growth. 108

Given Cc1cc(-c2ccc(N=Nc3ccc4c(S(=O)(=O)O)cc(S(=O)(=O)O)c(N)c4c3O)c(C)c2)ccc1N=Nc1ccc2c(S(=O)(=O)O)cc(S(=O)(=O)O)c(N)c2c1O , state its recorded growth. 120

Given CCCCCCCCCCCCCCCc1ccc(N)c(OC2OC(CO)C(O)C(O)C2O)c1 (stereo not drawn) , state its recorded growth. 112

Given O=CN1CCCCC1 , state its recorded growth. 110

Given N#CC(C#N)N=Nc1cc(Cl)ccc1Cl , state its recorded growth. 109

Given O=C1OC(c2ccccc2)=N/C1=C\c1ccccc1 , state its recorded growth. 108

Given OC1COC(OCc2ccccc2)C(O)C1O (stereo not drawn) , state its recorded growth. 104

Given Nc1ncnc2c1ncn2C1OC(COP(=O)(O)O)C(O)C1O (stereo not drawn) , state its recorded growth. 119

Given Cn1cnc([N+](=O)[O-])c1Sc1ncn[nH]1 , state its recorded growth. 104

// provenance: PubChem BioAssay (NCI)
